Attribution: patent US20210206841A1

The following binders are shown together with reported kon values.
Target: T1, tail-chimeric peptide IhfA3-IhfB2NTHI (nontypeable Haemophilus influenzae …)
T1 construct: also called IHF(NTHI) tail chimeric peptide; IHFNTHI tail chimeric peptide
T1 peptide: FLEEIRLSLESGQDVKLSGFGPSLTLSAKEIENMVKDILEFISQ
Assay: SPR Biacore 3000, HuMab immobilized, peptide as analyte
ASSAY_READOUT: kon (M⁻¹ s⁻¹)

| BINDER | READOUT_NUMBER |
| --- | --- |
| humanized anti-tail monoclonal antibody, heavy chain SEQ ID NO: 5 and light chain SEQ ID NO: 10 (antibody, V domains shown, also called H10214 (11E7.C7 Humanized HC2) + L10213 (11E7.C7 Humanized LC1)) VH: EVQLVESGGGLVKPGGSLRLSCAASGFTFSRYGMSWVRQAPGKGLEWVSTISSGGSYTYYTDSVKGRFTISRDNAKNSLYLQMNSLRAEDTAVYYCERHGGDGYWYFDVWGQGTMVTVSS VL: DIQMTQSPSSLSASVGDRVTITCRASQDISNYLNWYQQKPGKAVKLLIYYTSRLHSGVPSRFSGSGSGTDYTLTISSLQPEDFATYFCQQGNPLRTFGGGTKVEIKR | 4800 |
| humanized anti-tail monoclonal antibody, heavy chain SEQ ID NO: 5 and light chain SEQ ID NO: 11 (antibody, V domains shown, also called H10214 (11E7.C7 Humanized HC2) + L10214 (11E7.C7 Humanized LC2)) VH: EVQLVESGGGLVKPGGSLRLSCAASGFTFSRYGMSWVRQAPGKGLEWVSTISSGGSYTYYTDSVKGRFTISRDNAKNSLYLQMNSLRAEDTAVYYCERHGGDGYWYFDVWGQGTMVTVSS VL: DIQMTQSPSSLSASVGDRVTITCRASQDISNYLNWYQQKPGKAVKLLIYYTSRLHSGVPSRFSGSGSGTDYTLTISSLQPEDFATYYCQQGNPLRTFGGGTKVEIKR | 5700 |
